Experimental target: Ephrin type-A receptor 4 (Homo sapiens, UniProt P54764)
Sequence (P54764 whole entry): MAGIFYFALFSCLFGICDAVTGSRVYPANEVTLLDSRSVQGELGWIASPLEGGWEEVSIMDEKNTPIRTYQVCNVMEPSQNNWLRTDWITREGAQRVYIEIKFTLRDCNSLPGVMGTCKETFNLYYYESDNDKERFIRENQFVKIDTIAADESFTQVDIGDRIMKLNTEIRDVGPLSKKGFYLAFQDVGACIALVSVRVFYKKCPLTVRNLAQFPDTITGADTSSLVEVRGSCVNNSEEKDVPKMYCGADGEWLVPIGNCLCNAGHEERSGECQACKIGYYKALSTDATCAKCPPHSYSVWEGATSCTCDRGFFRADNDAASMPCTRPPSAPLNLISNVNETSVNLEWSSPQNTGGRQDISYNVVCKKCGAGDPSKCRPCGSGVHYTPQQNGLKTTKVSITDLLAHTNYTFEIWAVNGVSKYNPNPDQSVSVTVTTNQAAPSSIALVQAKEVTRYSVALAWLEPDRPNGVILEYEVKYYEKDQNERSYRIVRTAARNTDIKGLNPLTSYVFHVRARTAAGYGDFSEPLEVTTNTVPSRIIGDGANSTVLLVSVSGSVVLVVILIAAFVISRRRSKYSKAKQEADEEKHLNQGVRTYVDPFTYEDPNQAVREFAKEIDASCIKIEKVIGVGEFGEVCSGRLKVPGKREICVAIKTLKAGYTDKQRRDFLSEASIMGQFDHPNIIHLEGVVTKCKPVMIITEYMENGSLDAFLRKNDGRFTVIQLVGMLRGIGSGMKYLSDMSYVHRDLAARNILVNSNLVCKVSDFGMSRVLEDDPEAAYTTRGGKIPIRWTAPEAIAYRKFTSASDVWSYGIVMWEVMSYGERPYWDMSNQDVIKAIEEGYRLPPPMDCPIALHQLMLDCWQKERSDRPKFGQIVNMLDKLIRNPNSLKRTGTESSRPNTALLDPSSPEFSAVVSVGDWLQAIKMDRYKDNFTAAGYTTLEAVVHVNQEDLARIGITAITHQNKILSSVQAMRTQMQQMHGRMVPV
Experiment summary: Inhibition of his-tagged EPHA4-mediated poly(Glu,Tyr) phosphorylation at 200 uM after 75 mins using E4:Y1 as substrate by fluorescence assay

{"columns": ["Smiles repr", "Experimental target", "inhibition, %"],
 "data": [
  ["Cc1nc2[nH]nc(N)c2c2c1CSC(C)(C)C2", "Ephrin type-A receptor 4 (Homo sapiens, UniProt P54764)", 70],
  ["CC1(C)Cc2c(c(-c3ccccc3)nc3[nH]nc(N)c23)CS1", "Ephrin type-A receptor 4 (Homo sapiens, UniProt P54764)", 87],
  ["CN1CCc2c(c(N3CCOCC3)nc3[nH]nc(N)c23)C1", "Ephrin type-A receptor 4 (Homo sapiens, UniProt P54764)", 0],
  ["CN1CCc2c(c(NCCO)nc3[nH]nc(N)c23)C1", "Ephrin type-A receptor 4 (Homo sapiens, UniProt P54764)", 0],
  ["Nc1n[nH]c2ncc3c(c12)CCCCCC3", "Ephrin type-A receptor 4 (Homo sapiens, UniProt P54764)", 80],
  ["CC1(C)Cc2c(c(-c3ccco3)[nH]c3nnc(N)c2-3)CO1", "Ephrin type-A receptor 4 (Homo sapiens, UniProt P54764)", 75],
  ["CN1CCc2c(c(NCc3ccccc3)nc3[nH]nc(N)c23)C1", "Ephrin type-A receptor 4 (Homo sapiens, UniProt P54764)", 33],
  ["CCN(CC)c1nc2[nH]nc(N)c2c2c1CN(C)CC2", "Ephrin type-A receptor 4 (Homo sapiens, UniProt P54764)", 5],
  ["CC(C)c1nc2[nH]nc(N)c2c2c1COC(C)(C)C2", "Ephrin type-A receptor 4 (Homo sapiens, UniProt P54764)", 82],
  ["Cc1cc(C)c2c(NC(=O)c3ccccc3)n[nH]c2n1", "Ephrin type-A receptor 4 (Homo sapiens, UniProt P54764)", 10],
  ["CC1(C)Cc2c(c(-c3ccccc3)nc3[nH]nc(N)c23)CO1", "Ephrin type-A receptor 4 (Homo sapiens, UniProt P54764)", 90],
  ["CCCc1nc2[nH]nc(N)c2c2c1COC(C)(C)C2", "Ephrin type-A receptor 4 (Homo sapiens, UniProt P54764)", 77]
]}

Origin of measurements: ChEMBL document CHEMBL1926576
